Experiment: Human HepG2 cell viability assay in 384 well format
Format: toxicity, cell-based
Design: dose 125 nL, time 70.5 hour; concentration not given beside the values
Conditions: HepG2 cells, read-out: Inhibition
The reader will find reported cytotoxicity at 70.5 h values listed item by item below.
Use % as the unit, but write only the number.

{"columns": ["Compound", "Quantity Unit", "cytotoxicity at 70.5 h"],
 "data": [
  ["COc1ccc(-c2cc(C3(O)CCOC(C)(C)C3)on2)cc1 (centres undefined)", "%", -11.5]
]}

Now for the compound whose cytotoxicity at 70.5 h we want.
Give reported cytotoxicity at 70.5 h value for O=C(c1ccc(C(F)(F)F)cc1)N1C[C@@H](CN2CCCCC2)[C@@H](CO)C1
3.19

----------
The reader will find reported cytotoxicity at 70.5 h values listed item by item below.
Test: Human HepG2 cell viability assay in 384 well format
Assay type: toxicity, cell-based
Parameters: dose 125 nL, time 70.5 hour; concentration not given beside the values
Conditions: HepG2 cells, read-out: Inhibition
Use % as the unit, but write only the number.

Give reported cytotoxicity at 70.5 h value for O=C(OCc1ccccc1)C1CCCN1Cc1nc(C2CC2)no1 (stereo unspecified)
-17.4

Give reported cytotoxicity at 70.5 h value for CC(C(=O)Nc1cccc(Cl)c1SC(F)F)S(C)(=O)=O (stereo unspecified)
-3.11

Give reported cytotoxicity at 70.5 h value for CCNC(=O)CNC(=O)Nc1cccc(Cl)c1SC(F)F
0.0144

Give reported cytotoxicity at 70.5 h value for N#Cc1cccc(CNCCNC(=O)Cc2cccc(F)c2)c1
26.7

Give reported cytotoxicity at 70.5 h value for CCc1nnc(CN2CCCC(Cn3nc(C)nc3C)C2)o1 (stereo unspecified)
-11.6

----------
Experiment: Human HepG2 cell viability assay in 384 well format
Assay type: toxicity, cell-based
Set-up: dose 125 nL, time 70.5 hour; concentration not given beside the values
Conditions: HepG2 cells, read-out: Inhibition
Readout Label: cytotoxicity at 70.5 h (%)
Use % as the unit, but write only the number.

See these solved cases before continuing.
{"columns": ["Compound", "cytotoxicity at 70.5 h [%]"],
 "data": [
  ["CCc1cccc(CC)c1NC(=O)c1ccccc1N(C)S(C)(=O)=O", -8.14],
  ["CCn1cc(NC(=O)c2cccc(CN3C[C@@H](C)O[C@@H](C)C3)c2)nn1", 4.2],
  ["CCc1ccc(C(=O)NC2CCc3nc(C)cn3C2)o1 (configuration not stated)", -4.82]
]}

Give reported cytotoxicity at 70.5 h value for Cc1nc(N(C)C)cc(C2(C)CCCNC2)n1 (configuration not stated)
-2.1

Give reported cytotoxicity at 70.5 h value for CC(C)n1c(C2CCCN(CC(=O)NC(N)=O)C2)nc2ccccc21 (configuration not stated)
-1.95

Give reported cytotoxicity at 70.5 h value for Cc1ccc(CN2CCn3c(C(=O)N(C)C)cnc3C2)cc1
2.94

Give reported cytotoxicity at 70.5 h value for CC(C)(C)c1nc(NS(=O)(=O)c2cccc(F)c2)no1
-8.66

Give reported cytotoxicity at 70.5 h value for CN1CCCN(CCCNC2CCc3cc4c(cc32)OCCO4)CC1 (configuration not stated)
8.36

Give reported cytotoxicity at 70.5 h value for CC(C)c1nccn1C(C)C(=O)NC1CCOCC1 (configuration not stated)
2.76

Give reported cytotoxicity at 70.5 h value for O=C(CN1CCOC(Cn2cccn2)C1)Nc1nccs1 (configuration not stated)
-16.1

Give reported cytotoxicity at 70.5 h value for CN(C)CCn1c2c(ccc1=O)CC(NCc1cnn(C)c1)CC2 (configuration not stated)
-8.72

Give reported cytotoxicity at 70.5 h value for Cc1ccc(CNc2cc3c(cc2Cl)NC(=O)CO3)cc1C
-5.39
